Target: Fatty-acid amide hydrolase 1 (Homo sapiens, UniProt O00519)
Sequence (O00519 whole entry): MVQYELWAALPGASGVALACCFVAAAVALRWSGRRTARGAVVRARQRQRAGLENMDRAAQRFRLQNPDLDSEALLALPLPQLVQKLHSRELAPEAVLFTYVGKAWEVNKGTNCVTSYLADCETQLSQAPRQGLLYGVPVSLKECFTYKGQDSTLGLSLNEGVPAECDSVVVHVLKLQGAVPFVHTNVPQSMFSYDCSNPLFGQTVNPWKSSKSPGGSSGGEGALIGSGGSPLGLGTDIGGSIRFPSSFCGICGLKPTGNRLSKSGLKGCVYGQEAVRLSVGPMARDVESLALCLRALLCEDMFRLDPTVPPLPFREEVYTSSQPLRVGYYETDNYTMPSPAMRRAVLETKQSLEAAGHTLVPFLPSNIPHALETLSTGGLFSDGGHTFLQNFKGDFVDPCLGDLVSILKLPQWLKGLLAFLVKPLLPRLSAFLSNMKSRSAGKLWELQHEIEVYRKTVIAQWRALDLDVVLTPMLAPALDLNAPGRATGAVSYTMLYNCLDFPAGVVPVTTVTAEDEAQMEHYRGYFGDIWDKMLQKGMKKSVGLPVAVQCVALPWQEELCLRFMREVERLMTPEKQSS
Assay: Inhibition of FAAH in human U937 cells using [ethanolamine-1-3H]AEA as substrate preincubated for 15 mins followed by substrate addition and measured after 15 mins by liquid scintillation spectroscopy
Measurement Kind: IC50

INPUT: Look up IC50 for this compound: CO[C@@H]1O[C@H](CNC(=O)c2cc(Br)c(C)n(Cc3ccc(F)cc3)c2=O)[C@H](O)[C@H](O)[C@H]1O
OUTPUT: > 10 µM

INPUT: Also COc1ccc(-c2cc(C(=O)NC3CCCCCC3)c(OCc3ccc(F)cc3)nc2C)cc1 ?
OUTPUT: > 10 µM

INPUT: Also Cc1c(Cl)cc(C(=O)NC2CCCCCC2)c(=O)n1Cc1ccc(F)cc1 ?
OUTPUT: 5.9 µM

INPUT: Also COc1ccc(-c2cc(C(=O)NC3CCCCCC3)c(=O)n(Cc3ccc(F)cc3)c2C)cc1 ?
OUTPUT: 2 µM

INPUT: Also Cc1c(-c2ccc(F)cc2)cc(C(=O)NC2CCCCCC2)c(=O)n1Cc1ccc(F)cc1 ?
OUTPUT: 0.53 µM

INPUT: Also Cc1ccc(C(=O)NC2CCCCCC2)c(OCc2ccc(F)cc2)n1 ?
OUTPUT: > 10 µM

INPUT: Also Cc1c(Br)cc(C(=O)NC2CCCCCC2)c(=O)n1Cc1ccc(F)cc1 ?
OUTPUT: 5.9 µM

INPUT: Also Cc1c(-c2ccccc2)cc(C(=O)NC2CCCCCC2)c(=O)n1Cc1ccc(F)cc1 ?
OUTPUT: 0.56 µM

INPUT: Also CC(=O)N[C@@H]1[C@@H](O)[C@H](O)[C@@H](CO)O[C@H]1NC(=O)c1cc(Br)c(C)n(Cc2ccc(F)cc2)c1=O ?
OUTPUT: > 10 µM

INPUT: Also Cc1nc(OCc2ccc(F)cc2)c(C(=O)NC2CCCCCC2)cc1-c1ccc(F)cc1 ?
OUTPUT: > 10 µM

INPUT: Also Cc1c(Br)cc(C(=O)NC2CCNCC2)c(=O)n1Cc1ccc(F)cc1 ?
OUTPUT: > 10 µM

INPUT: Also Cc1c(F)cc(C(=O)NC2CCCCCC2)c(=O)n1Cc1ccc(F)cc1 ?
OUTPUT: > 10 µM

INPUT: Also Cc1ccc(C(=O)NC2CCCCCC2)c(=O)n1Cc1ccc(F)cc1 ?
OUTPUT: > 10 µM

INPUT: Also Cc1nc(OCc2ccc(F)cc2)c(C(=O)NC2CCCCCC2)cc1Br ?
OUTPUT: > 10 µM

----------
For each record, write down the corresponding pIC50.
Molecular target: Monoacylglycerol lipase ABHD6 (Homo sapiens, UniProt Q9BV23)
Sequence (Q9BV23 whole entry): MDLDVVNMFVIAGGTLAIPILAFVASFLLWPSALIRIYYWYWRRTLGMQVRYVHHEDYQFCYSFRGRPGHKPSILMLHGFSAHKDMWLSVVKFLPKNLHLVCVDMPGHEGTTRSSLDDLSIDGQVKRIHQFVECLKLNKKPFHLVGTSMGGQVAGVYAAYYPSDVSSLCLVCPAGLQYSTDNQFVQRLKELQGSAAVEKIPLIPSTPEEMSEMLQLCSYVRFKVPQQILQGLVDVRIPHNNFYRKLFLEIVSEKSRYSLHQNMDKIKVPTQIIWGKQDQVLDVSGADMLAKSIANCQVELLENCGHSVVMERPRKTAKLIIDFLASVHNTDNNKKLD
Assay: Inhibition of human ABHD6 expressed in HEK293 cells using 2-OG as substrate preincubated for 30 mins followed by substrate addition and measured after 5 mins by liquid scintillation spectroscopy
pIC50: −log10 of the molar value.

INPUT: Look up pIC50 for this compound: COc1ccc(-c2cc(C(=O)NC3CCCCCC3)c(=O)n(Cc3ccc(F)cc3)c2C)cc1
OUTPUT: 6.28

INPUT: Also CC(=O)N[C@@H]1[C@@H](O)[C@H](O)[C@@H](CO)O[C@H]1NC(=O)c1cc(Br)c(C)n(Cc2ccc(F)cc2)c1=O ?
OUTPUT: < 5.00

INPUT: Also Cc1c(Cl)cc(C(=O)NC2CCCCCC2)c(=O)n1Cc1ccc(F)cc1 ?
OUTPUT: < 5.00

INPUT: Also Cc1nc(OCc2ccc(F)cc2)c(C(=O)NC2CCCCCC2)cc1Br ?
OUTPUT: < 5.00

----------
For each record, write down the corresponding pKi.
molecular target: UniProt:P34972; experiment: Displacement of [3H]CP55940 from recombinant human CB2R expressed in CHO cell membranes incubated for 90 mins; design: species or system Membrane
As a rule, pKi stands for the negative log10 of the concentration, concentration in M.

INPUT: Look up pKi for this compound: Cc1c(-c2ccc(F)cc2)cc(C(=O)NC2CCCCCC2)c(=O)n1Cc1ccc(F)cc1
OUTPUT: 7.54

INPUT: Also Cc1c(Br)cc(C(=O)NC2CCCCCC2)c(=O)n1Cc1ccc(F)cc1 ?
OUTPUT: 8.82

INPUT: Also Cc1nc(OCc2ccc(F)cc2)c(C(=O)NC2CCCCCC2)cc1Br ?
OUTPUT: 8.82

INPUT: Also Cc1c(F)cc(C(=O)NC2CCCCCC2)c(=O)n1Cc1ccc(F)cc1 ?
OUTPUT: 8.24

INPUT: Also Cc1c(-c2ccccc2)cc(C(=O)NC2CCCCCC2)c(=O)n1Cc1ccc(F)cc1 ?
OUTPUT: 8.24

----------
For each record, write down the corresponding EC50.
molecular target: Cannabinoid receptor 1 (Homo sapiens, UniProt P21554); experiment: Antagonist activity at human CB1R expressed in CHO cell membranes preincubated for 30 mins followed by GTPgammaS addition and measured after 90 mins by [35S]GTPgammaS assay; assay type: functional, Membrane
Sequence (P21554 whole entry): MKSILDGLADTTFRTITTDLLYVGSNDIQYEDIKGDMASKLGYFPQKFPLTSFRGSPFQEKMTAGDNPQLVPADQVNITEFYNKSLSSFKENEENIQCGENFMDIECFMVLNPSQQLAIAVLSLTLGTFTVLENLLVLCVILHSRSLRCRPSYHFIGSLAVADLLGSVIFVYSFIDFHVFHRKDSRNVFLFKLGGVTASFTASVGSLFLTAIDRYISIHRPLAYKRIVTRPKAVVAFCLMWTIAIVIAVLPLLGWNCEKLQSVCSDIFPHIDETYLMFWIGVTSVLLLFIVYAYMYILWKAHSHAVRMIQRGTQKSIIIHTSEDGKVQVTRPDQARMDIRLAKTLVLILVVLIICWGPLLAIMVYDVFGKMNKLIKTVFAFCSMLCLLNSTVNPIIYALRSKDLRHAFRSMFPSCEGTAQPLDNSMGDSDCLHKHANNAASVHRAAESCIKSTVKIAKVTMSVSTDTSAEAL
Field format: number, assumed nM, no unit text.

INPUT: Look up EC50 for this molecule: Cc1c(-c2ccccc2)cc(C(=O)NC2CCCCCC2)c(=O)n1Cc1ccc(F)cc1
OUTPUT: 0.36

INPUT: Also COc1ccc(-c2cc(C(=O)NC3CCCCCC3)c(=O)n(Cc3ccc(F)cc3)c2C)cc1 ?
OUTPUT: 270

----------
target: Cannabinoid receptor 2 (Homo sapiens, UniProt P34972); experiment: Antagonist activity at human CB2R expressed in CHO cell membranes preincubated for 30 mins followed by GTPgammaS addition and measured after 90 mins by [35S]GTPgammaS assay; format: functional, Membrane
Sequence (P34972 whole entry): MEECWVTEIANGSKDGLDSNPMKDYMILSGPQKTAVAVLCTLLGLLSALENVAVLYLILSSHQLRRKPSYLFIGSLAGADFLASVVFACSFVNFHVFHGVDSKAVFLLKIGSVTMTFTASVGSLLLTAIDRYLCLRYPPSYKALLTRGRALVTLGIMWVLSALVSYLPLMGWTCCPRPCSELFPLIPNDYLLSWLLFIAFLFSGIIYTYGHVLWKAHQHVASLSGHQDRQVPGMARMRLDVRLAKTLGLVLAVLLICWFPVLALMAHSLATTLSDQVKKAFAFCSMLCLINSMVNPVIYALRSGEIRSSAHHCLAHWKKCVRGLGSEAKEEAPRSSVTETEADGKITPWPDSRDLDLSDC
Measurement Kind: pEC50
As a rule, pEC50 stands for the negative log10 of the concentration, concentration in M.

INPUT: Short answer please: pEC50, Cannabinoid receptor 2 (Homo sapiens, UniProt P34972), entry COc1ccc(-c2cc(C(=O)NC3CCCCCC3)c(=O)n(Cc3ccc(F)cc3)c2C)cc1
OUTPUT: 6.77

----------
biological target: Monoacylglycerol lipase ABHD6 (Homo sapiens, UniProt Q9BV23); experiment: Inhibition of human ABHD6 expressed in HEK293 cells using 2-OG as substrate preincubated for 30 mins followed by substrate addition and measured after 5 mins by liquid scintillation spectroscopy
For each record, write down the corresponding IC50.

INPUT: Short answer please: IC50, Monoacylglycerol lipase ABHD6 (Homo sapiens, UniProt Q9BV23), entry CO[C@@H]1O[C@H](CNC(=O)c2cc(Br)c(C)n(Cc3ccc(F)cc3)c2=O)[C@H](O)[C@H](O)[C@H]1O
OUTPUT: > 10 µM

INPUT: Also Cc1c(F)cc(C(=O)NC2CCCCCC2)c(=O)n1Cc1ccc(F)cc1 ?
OUTPUT: > 10 µM

INPUT: Also Cc1nc(OCc2ccc(F)cc2)c(C(=O)NC2CCCCCC2)cc1-c1ccc(F)cc1 ?
OUTPUT: > 10 µM

INPUT: Also COc1ccc(-c2cc(C(=O)NC3CCCCCC3)c(OCc3ccc(F)cc3)nc2C)cc1 ?
OUTPUT: 0.53 µM

INPUT: Also Cc1ccc(C(=O)NC2CCCCCC2)c(OCc2ccc(F)cc2)n1 ?
OUTPUT: > 10 µM
